All figures here come from patent US11207431B2.

- Test Name: in vivo
- Condition: C57BL/6, mouse, po
Readout Name: bioavailability (%)

[[record]]
sample_smiles = "CN(Cc1ccc(C(=O)NO)cc1F)CC12CC3CC(CC(C3)C1)C2"
readout_name = "bioavailability"
readout_units = "%"
recorded_measurement = 10


====

- System Under Test: HDAC11 (Homo sapiens (Human))
- Sequence (Q96DB2 whole entry, species assumed): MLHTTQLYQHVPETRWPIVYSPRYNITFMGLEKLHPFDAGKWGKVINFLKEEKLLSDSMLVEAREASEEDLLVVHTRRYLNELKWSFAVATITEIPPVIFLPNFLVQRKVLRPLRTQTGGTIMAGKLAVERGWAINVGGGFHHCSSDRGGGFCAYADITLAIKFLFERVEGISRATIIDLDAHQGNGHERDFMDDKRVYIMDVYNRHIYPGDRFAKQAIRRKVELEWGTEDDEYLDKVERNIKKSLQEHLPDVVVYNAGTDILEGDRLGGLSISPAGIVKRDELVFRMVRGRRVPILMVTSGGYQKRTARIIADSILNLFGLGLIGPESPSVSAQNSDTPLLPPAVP
- Test Name: IC50 values of comparison compounds B-F (Table 1B)
- Format: biochemical
- Condition: comparison compound C, source not stated
Readout Name: IC50

[[record]]
sample_smiles = "CN(c1ncc(C(=O)NO)cn1)C12CC3CC(CC(C3)C1)C2"
recorded_measurement = "3.6 µM"


====

- System Under Test: UniProt:Q969S8
- Sequence (Q969S8 whole entry): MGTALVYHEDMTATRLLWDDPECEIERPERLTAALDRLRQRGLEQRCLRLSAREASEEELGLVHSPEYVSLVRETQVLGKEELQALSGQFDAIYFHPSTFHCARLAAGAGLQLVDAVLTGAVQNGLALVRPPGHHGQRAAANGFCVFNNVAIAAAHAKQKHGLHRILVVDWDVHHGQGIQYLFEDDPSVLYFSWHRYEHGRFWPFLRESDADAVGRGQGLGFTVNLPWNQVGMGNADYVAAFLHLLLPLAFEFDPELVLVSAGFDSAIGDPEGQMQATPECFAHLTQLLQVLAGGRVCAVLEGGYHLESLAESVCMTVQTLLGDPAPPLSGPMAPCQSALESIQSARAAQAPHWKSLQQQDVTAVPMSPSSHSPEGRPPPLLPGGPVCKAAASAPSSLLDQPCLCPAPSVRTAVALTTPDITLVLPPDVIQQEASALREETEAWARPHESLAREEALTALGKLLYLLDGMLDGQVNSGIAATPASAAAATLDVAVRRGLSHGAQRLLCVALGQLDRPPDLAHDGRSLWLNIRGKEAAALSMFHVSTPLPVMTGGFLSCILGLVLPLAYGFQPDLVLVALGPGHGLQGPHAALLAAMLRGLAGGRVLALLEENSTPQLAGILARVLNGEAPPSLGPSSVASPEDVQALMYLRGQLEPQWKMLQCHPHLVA
- Test Name: IC50 assay, BPS Biosciences fluorescence assay
- Format: biochemical
- Condition: IC50 measured by BPS
pIC50: −log10 of the molar value.
Readout Name: pIC50

[[record]]
sample_smiles = "CN(Cc1ccc(C(=O)NO)cc1F)CC12CC3CC(CC(C3)C1)C2"
system_under_test = "UniProt:Q969S8"
recorded_measurement = "< 6.00"

